Ref: PubChem BioAssay (NCI)

growth reference
- System: U251 CNS
- test_summary: NCI-60 one-dose screen, 48 h (100 = growth as untreated, 0 = no growth, -100 = all killed)
- condition_description: 10 µM unless noted
About 83,000 compounds went through this panel and 20% of them were active in at least one assay; those are over-represented in the sample as a whole.
Numeric only. Scale: %

1. C[C@]12CC[C@@H]3c4cc(O)c(O)cc4CC[C@H]3[C@@H]1CC[C@@H]2O : 35.8

stdin: Record COc1ccc(C2NC3=C(CCCC3)C(C#N)(C#N)C2(C#N)C#N)cc1 (stereo not drawn) : what is its growth with U251 CNS?
stdout: 107

stdin: Record O=C(O)C(Cc1ccccc1)N1C(=O)/C(=C/C(Cl)=C/c2ccc([N+](=O)[O-])cc2)SC1=S (stereo not drawn) : what is its growth with U251 CNS?
stdout: 8.38

stdin: Record "O=c1[nH]c(CN2CCN(c3ccccc3F)CC2)nc2sc3c(c12)CCC3" : what is its growth with U251 CNS?
stdout: 104

stdin: Record Nc1c(C(=O)Nc2cccc(C(F)(F)F)c2)sc2nc3c(cc12)C(O)CCC3 (stereo not drawn) : what is its growth with U251 CNS?
stdout: 16.8

stdin: Record "CC(=O)Nc1ccc2c(c1)/C(=C\C=C/c1ccc([N+](C)(C)C)cc1)c1ccccc1-2" : what is its growth with U251 CNS?
stdout: 26

stdin: Record NC(C(=O)O)C(O)c1ccc(OCc2ccccc2)c(OCc2ccccc2)c1 (stereo not drawn) : what is its growth with U251 CNS?
stdout: 91

stdin: Record "Nc1nc(Cl)c2c(ncn2Cc2ccc(CCl)cc2)n1" : what is its growth with U251 CNS?
stdout: 81.4

* * *

- System: PC-3 prostate
- test_summary: NCI-60 one-dose screen, 48 h (100 = growth as untreated, 0 = no growth, -100 = all killed)
- condition_description: 10 µM unless noted
Compounds without any hit were thinned out: in the full panel of roughly 83,000, 20% have a hit.
param class (str): category from growth; see ranges low range (below 70%), mid range (70% to below 90%), high range (90% or more)

stdin: Which band does "O=C(O)c1ccc(-n2c(=O)c3ccccc3c3ccccc3c2=O)cc1" fall in?
stdout: high range

stdin: Which band does "Cc1cc(C(=O)CSc2nc3ccccc3c(=O)[nH]2)c(C)n1C" fall in?
stdout: mid range

stdin: Which band does "O=C(CNC1CCCCC1)Nc1ccc(-c2nc3ccccc3s2)cc1" fall in?
stdout: mid range

stdin: Which band does "O=Nc1c(-c2c(O)[nH]c3ccc([N+](=O)[O-])cc23)[nH]c2ccc(O)cc12" fall in?
stdout: low range

stdin: Which band does "C[N+](C)(C)c1ccc(CC2c3ccccc3-c3ccccc32)cc1" fall in?
stdout: low range

stdin: Which band does "CCO/C=N/NC(=O)c1ccncc1" fall in?
stdout: high range

stdin: Which band does CCNC(=O)C1CCCN1C(=O)C(CCCN=C(N)N)NC(=O)C(CC(C)C)NC(=O)C(CC(C)C)NC(=O)C(Cc1ccc(O)cc1)NC(=O)C(CO)NC(=O)C(Cc1c[nH]c2ccccc12)NC(=O)C(Cc1cnc[nH]1)NC(=O)C1CCC(=O)N1 (stereo not given) fall in?
stdout: mid range

stdin: Which band does "CCN(Cc1ccc(CN(CC)C(=O)C(Br)Br)cc1)C(=O)C(Br)Br" fall in?
stdout: low range

stdin: Which band does "COc1ccc(N=C2NN=C(c3ccc(F)cc3)CS2)cc1OC" fall in?
stdout: high range

stdin: Which band does "COC(=O)c1ccc(C)cc1" fall in?
stdout: high range

stdin: Which band does "CCc1cccc(C)c1NC(=O)c1sc2nc3c(cc2c1N)C(=O)CCC3" fall in?
stdout: low range
